Experiment: basal 3T3-L1 adipocyte mitochondrial potential changes, profiling panel, cell-based, JC-1 fluorescence, 3T3-L1 adipocytes, 24 h, 100 nL compound (AID 1168)
Conditions: JC-1 mitochondrial fluorescence, higher = more signal, called active from +8 up or from −8 down
The source made the active and inactive calls.
endpoint label: z-score

Below are worked cases with known answers.
[[record]]
molecule = "CC(C)C(CO)N1C(=O)[C@@H]2C3C(=O)OCCC/C=C\\[C@H]3OC23C=CCN(C(C)C)C(=O)[C@@H]13 (stereo partly specified)"
measured_result = "-0.0599 (inactive)"

[[record]]
molecule = "COCCOC(=O)N1C(=O)[C@@]2(c3cc(C#CC4(O)CCCCCC4)ccc31)[C@H](c1ccccc1OCCO)N1[C@H](c3ccccc3)[C@H](c3ccccc3)OC(=O)[C@H]1[C@@H]2C(=O)Nc1nc2ccccc2s1"
measured_result = "1.52 (inactive)"

[[record]]
molecule = "O=C1O[C@H](c2ccccc2)[C@H](c2ccccc2)N2[C@H]1[C@@H](C(=O)NC[C@H](O)c1ccccc1)[C@]1(C(=O)Nc3ccc(C#CC4(O)CCCCCC4)cc31)[C@H]2c1ccc(O)cc1"
measured_result = "-0.947 (inactive)"

[[record]]
molecule = "O=C1O[C@@H](c2ccccc2)[C@@H](c2ccccc2)N2[C@@H](c3ccc(OCCO)cc3)[C@]3(C(=O)Nc4ccc(C#CC5(O)CCCCCC5)cc43)[C@@H](C(=O)NC[C@H](O)c3ccccc3)[C@H]12"
measured_result = "0.548 (inactive)"


Could you share which z-score value was measured for CC(C)C[C@@H]1NC(=O)[C@@]23C(=O)N[C@@H](Cc4ccccc4)C2[C@H](C)[C@@]2(C)O[C@H]2C3/C=C/CC/C=C/CNC(=O)[C@@H](C)NC1=O (stereo partly specified) ?
0.918 (inactive)

Could you share which z-score value was measured for COc1ccc(/C=C/C(=O)c2cccc(OCC(=O)OC(C)(C)C)c2)cc1 ?
0.342 (inactive)

====

Experiment: inhibitors of hydroxyurea-induced Chk1 phosphorylation, primary screen, imaging, HeLa, phospho-Chk1 nuclear intensity (AID 1187)
Conditions: hydroxyurea-induced phospho-Chk1 immunofluorescence imaging, higher = more signal
endpoint label: z-score
Could you keep your reply to the number by itself?

[[record]]
compound = "C[N+](C)(C)CCCC[C@@H]1NC(=O)[C@H]2C[C@@H](C(=O)NCCCCCN)[C@@H](c3cccc(OCCO)c3)N2C1=O"
measured_result = 0.7

[[record]]
compound = "CO[C@H]1O[C@H](CO)[C@@H](OC(=O)Nc2ccccc2)[C@H](OC(=O)Nc2ccc3c(c2)OCO3)[C@H]1OC(=O)Nc1ccc2c(c1)OCO2"
measured_result = -0.967

[[record]]
compound = "CCCCCN1CC=CC23O[C@@H]4/C=C\\CCC(C)OC(=O)C4[C@H]2C(=O)N(CCO)[C@@H]3C1=O (some centres undefined)"
measured_result = 0.125


Could you share which z-score value was measured for C=C(CCCC)/C(=C/C[C@@H](OC(=O)c1ccncc1)c1ccc(OCCO)cc1)c1cnc2ccccc2c1 ?
-0.181

====

Test: cytotoxicity in PAX8-dependent RMG-1 cells, dose response, cell-based, cherry-pick (AID 687029);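 note: cells exposed to compound for 96 hours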
Conditions: RMG-1 viability, CellTiterGlo ATP luminescence, 96 h; series mostly up to 35 µM
Results with a measured potency or affinity are listed apart. Active and inactive are the calls of the source.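 How the source made its calls: active means signal drop whose fitted half-maximal concentration is at most twice the top valid dose, in every test run; inconclusive means mixed calls across runs, poor fit, or flat 30 to 70% inhibition; inactive means wrong direction, flat within 30%, or potency beyond limit.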
endpoint label: activity change, negative = inhibition

Below are worked cases with known answers.
[[record]]
compound = "COc1ccccc1NC1=Nc2cccc3cccc1c23"
measured_result = "inactive"

[[record]]
compound = "COc1ccc(-c2ccc3c(c2)[C@@H]2[C@@H](CCN2C(=O)C2CCCCC2)[C@H](CO)N3C)cc1"
measured_result = "inactive"

[[record]]
compound = "O=C(C[C@@H]1CC[C@@H]2[C@H](COC[C@@H](O)CN2S(=O)(=O)c2cccc(Cl)c2)O1)Nc1ccc(-c2ccccc2)cc1"
measured_result = "inactive"

[[record]]
compound = "O=C(NC1CC1)c1ccc2c(c1)C1C3CCC(C3)C1C(c1ccccc1)N2 (centres undefined)"
measured_result = "inactive"

[[record]]
compound = "COc1ccc(O)c(/C=N/NC(=O)c2ccc(N3CCCC3=O)cc2)c1"
measured_result = "inactive"


Could you share which activity change, negative = inhibition value was measured for C[C@H]1CCCCO[C@@H](CN(C)Cc2ccc(C(F)(F)F)cc2)[C@@H](C)CN([C@@H](C)CO)C(=O)c2cc(NC(=O)Nc3ccc4c(c3)OCO4)ccc2O1 ?
inactive

Could you share which activity change, negative = inhibition value was measured for O=c1c(Cl)c(Cl)cnn1-c1ccccc1 ?
inactive

Could you share which activity change, negative = inhibition value was measured for CN1CCN(c2ccc(S(=O)(=O)N3CCCCC3)cc2NC(=O)/C=C/c2ccc(Cl)c([N+](=O)[O-])c2)CC1 ?
inactive

Could you share which activity change, negative = inhibition value was measured for C[C@H](CO)N1C[C@H](C)[C@H](CN(C)C(=O)c2ccccc2)OCCCC[C@H](C)Oc2ccc(NC(=O)Nc3ccc(C(F)(F)F)cc3)cc2C1=O ?
inactive

Could you share which activity change, negative = inhibition value was measured for O=[N+]([O-])c1cc2c(ccc3occc32)o1 ?
inactive

Could you share which activity change, negative = inhibition value was measured for O=C(Nc1ccc(F)cc1)N1C[C@@H]2N[C@H](C1)C2c1ccc(/C=C/c2ccccc2)cc1 (some centres undefined) ?
inactive

Could you share which activity change, negative = inhibition value was measured for COc1ccccc1N1CCN(Cc2cc(Br)c(O)c3ncccc23)CC1 ?
inactive

Could you share which activity change, negative = inhibition value was measured for Cn1nnnc1Sc1ncnc2scc(-c3ccc(F)cc3)c12 ?
inactive

Could you share which activity change, negative = inhibition value was measured for O=S(=O)(c1ccccc1F)N1CC[C@H]2[C@H](CO)Nc3ccc(C4=CCCCC4)cc3[C@H]21 ?
inactive
